# TARGET UNDER TEST: GST-hLGK1 (human hepatic GK) (Homo sapiens, UniProt P35557)
# Sequence (P35557 1-464 isoform P35557-3): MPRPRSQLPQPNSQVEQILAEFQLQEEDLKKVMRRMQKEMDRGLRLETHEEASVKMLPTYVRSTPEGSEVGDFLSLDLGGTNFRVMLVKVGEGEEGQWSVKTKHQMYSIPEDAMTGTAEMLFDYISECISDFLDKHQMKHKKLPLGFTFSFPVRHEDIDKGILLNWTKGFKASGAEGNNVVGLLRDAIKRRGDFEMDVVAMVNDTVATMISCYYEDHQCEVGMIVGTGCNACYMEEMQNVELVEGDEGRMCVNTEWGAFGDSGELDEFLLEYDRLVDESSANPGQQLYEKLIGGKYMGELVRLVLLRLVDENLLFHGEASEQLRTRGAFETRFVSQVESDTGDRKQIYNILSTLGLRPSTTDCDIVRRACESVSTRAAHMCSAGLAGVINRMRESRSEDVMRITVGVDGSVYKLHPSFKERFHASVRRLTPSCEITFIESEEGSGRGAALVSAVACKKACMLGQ
# EXPERIMENT DESCRIPTION: Measurement of GK activation value (Mant-ATP/Mant-ADP capillary electrophoresis, reaction rate)
# RECORDED CONDITIONS: concentration necessary for activation of 50% of the maximum activity value; 37° C., 60 min
READOUT TYPE: EC50 (nM)
The response must be a number in nM with no trailing unit.

Below are worked cases with known answers.
CC(C)Oc1ccc(OCc2ccccc2)cc1-c1nc2cc(CO)cnc2[nH]1 [Example 76] :: 730
CC(C)Oc1cc(OCCCc2cccnc2)cc(-c2nc3cccnc3[nH]2)c1 [Example 4] :: 1600
CC(C)Oc1cc(OCc2ccccc2)ccc1-c1nc2cc(-c3ccccc3F)cnc2[nH]1 [Example 72] :: 200
CC(C)Oc1cc(OCCc2ccsc2)cc(-c2nc3cccnc3[nH]2)c1 [Example 3] :: 150
Cc1ccccc1-c1cnc2[nH]c(-c3cc(OCc4ccccc4)ccc3OC(C)C)nc2c1 [Example 47] :: 400
COc1ccccc1-c1cnc2[nH]c(-c3cc(OCc4ccccc4)ccc3OC(C)C)nc2c1 [Example 48] :: 240
COc1ccc(-c2cnc3[nH]c(-c4ccc(OCc5ccccc5)cc4OC(C)C)nc3c2)cc1 [Example 51] :: 250

# next molecule below
Look up EC50: CC(C)Oc1ccc(OCc2ccccc2)cc1-c1nc2cc(-c3cccnc3)cnc2[nH]1 [Example 40]
440

====

# TARGET UNDER TEST: glucokinase (residues 12-465 of the human enzyme) (Homo sapiens)
# Construct: FLAG (vector pFLAG-CTC) (C); made in house; host or cells: E. coli DH10b-T1r (pFLAG-CTC)
# Sequence (P35557 12-465): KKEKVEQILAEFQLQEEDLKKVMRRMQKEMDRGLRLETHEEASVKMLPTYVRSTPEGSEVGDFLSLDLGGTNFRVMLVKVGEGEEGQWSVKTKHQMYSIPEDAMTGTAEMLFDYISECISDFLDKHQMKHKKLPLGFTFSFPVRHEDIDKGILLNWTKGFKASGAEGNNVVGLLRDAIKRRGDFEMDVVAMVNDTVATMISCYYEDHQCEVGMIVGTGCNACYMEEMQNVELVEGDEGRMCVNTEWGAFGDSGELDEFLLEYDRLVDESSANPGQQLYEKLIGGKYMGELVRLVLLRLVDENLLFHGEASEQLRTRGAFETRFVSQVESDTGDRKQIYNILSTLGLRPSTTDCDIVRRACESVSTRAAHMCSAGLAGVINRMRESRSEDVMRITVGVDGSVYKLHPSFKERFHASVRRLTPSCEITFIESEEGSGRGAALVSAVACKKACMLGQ
# EXPERIMENT DESCRIPTION: Measurement of GK activation value (ATP/glucose, luciferase luminescence)
# Format: biochemical
# RECORDED CONDITIONS: calculated maximal gain in GK enzyme activity at a saturating concentration of the compound; values given as ranges; read-out: % ACTmaxc
Emax listing for selected compounds.

Sample answers from the record:
Cn1ccnc1COc1cc(OCc2ccccc2F)cc(-c2nc3cc(CCCO)cnc3[nH]2)c1 [Example 168] :: > 70%
COc1ccc(/C=C/c2ccncc2)cc1-c1nc2cccnc2[nH]1 [Example 246] :: 30 to 49.9%
Cn1ccnc1CNc1cc(NS(C)(=O)=O)cc(-c2nc3cc(Br)cnc3[nH]2)c1 [Example 214] :: 30 to 49.9%

What reported Emax corresponds to Fc1ccccc1COc1cc(Oc2ncccn2)cc(-c2nc3cc(Br)cnc3[nH]2)c1 [Example 245] on glucokinase (residues 12-465 of the human enzyme) (Homo sapiens)?
> 70%

# value lookup — system glucokinase (residues 12-465 of the human enzyme) (Homo sapiens), readout Emax, item COC[C@@H](C)Oc1cc(OCc2ccccc2F)cc(-c2nc3cccnc3[nH]2)c1 [Example 172]
50 to 69.9%

What is its Emax for glucokinase (residues 12-465 of the human enzyme) (Homo sapiens)? Entry: Cn1ccnc1COc1cc(OCc2ccccc2F)cc(-c2nc3cccnc3[nH]2)c1 [Example 165]
> 70%

Lab note: need Emax for COC[C@H](C)Oc1cc(Oc2ccc(S(C)(=O)=O)cc2)cc(-c2nc3cccnc3[nH]2)c1 [Example 181] on glucokinase (residues 12-465 of the human enzyme) (Homo sapiens), anyone have it?
> 70%

What reported Emax corresponds to COC[C@@H](C)Oc1cc(OCc2ccccc2F)cc(-c2nc3cc(Cl)cnc3[nH]2)c1 [Example 173] on glucokinase (residues 12-465 of the human enzyme) (Homo sapiens)?
50 to 69.9%

API: value(readout= Emax, system= glucokinase (residues 12-465 of the human enzyme) (Homo sapiens), query= COC[C@H](C)Oc1cc(OCc2ccccc2F)cc(-c2nc3cc(CCCO)cnc3[nH]2)c1 [Example 177] )
20 to 29.9%

Fill in the recorded Emax for this compound, with glucokinase (residues 12-465 of the human enzyme) (Homo sapiens) as test system: Cn1ccnc1CNc1cc(NS(=O)(=O)c2ccccc2)cc(-c2nc3cc(Br)cnc3[nH]2)c1 [Example 213]
30 to 49.9%
